# Tested on: SORHA
# assay.notes: Pre-emergence herbicidal activity on SORHA (johnsongrass, seedling)
# Assay type: in vivo, Sorghum halepense
# test.parameters: lowest tested rate giving 80% or greater inhibition, approx. 14 days after planting and treating, greenhouse
measurement.name: Pre-emergence activity (GR80) on SORHA (g/ha)
Just the number please, in g/ha, no unit attached.

These recorded examples may help you get a feel for the data.
# molecule, unit.of.measure, Pre-emergence activity (GR80) on SORHA
records = [
    ("Cc1ccc(Cl)cc1C(=O)NC(C)CNC(=O)c1cccc(C(F)(F)F)c1 (centres unmarked) [Example 47]", "g/ha", 750),
    ("CC(CNC(=O)c1cccc(C(F)(F)F)c1)NC(=O)c1cccc(C(F)(F)F)c1Cl (centres unmarked) [Example 14]", "g/ha", 500),
    ("CC(CNC(=O)c1cccc(C(F)(F)F)c1)NC(=O)c1ccccc1Cl (centres unmarked) [Example 103]", "g/ha", 500),
]

We next turn to a different molecule, shown below.
Prompt: Let me know recorded Pre-emergence activity (GR80) on SORHA for C[C@H](CNC(=O)c1cccc(C(F)(F)F)c1)NC(=O)c1cccc(C(F)(F)F)c1F [Example 13] , thanks.
Response: 500

----------
# Test system: SORVU
# assay.notes: Pre-emergence herbicidal activity on SORVU (shattercane)
# Format: in vivo, Sorghum vulgare
# test.parameters: lowest tested rate giving 80% or greater inhibition, approx. 14 days after planting and treating, greenhouse
measurement.name: Pre-emergence activity (GR80) on SORVU

Would you please look over these solved cases?
# compound, Pre-emergence activity (GR80) on SORVU
rows = [
    ("COc1c(F)cccc1C(=O)NC(C)CNC(=O)c1cccc(C(F)(F)F)c1 (centres unmarked)", "phyto"),
    ("CCSc1ncccc1C(=O)NC(C)CNC(=O)c1cccc(C(F)(F)F)c1 (centres unmarked)", "phyto"),
    ("CC(CNC(=O)c1cccc(C(F)(F)F)c1)NC(=O)c1cccc(OC(F)(F)F)c1 (centres unmarked)", "phyto"),
    ("Cc1c(Cl)cccc1C(=O)NC(C)CNC(=O)c1cccc(C(F)(F)F)c1 (centres unmarked)", "phyto"),
    ("Cc1c(Cl)cccc1C(=O)NC(C)CNC(=O)c1cccc(C(F)(F)F)c1F (centres unmarked)", "phyto"),
]

Prompt: Look up Pre-emergence activity (GR80) on SORVU of CC(CNC(=O)c1cccc(C(F)(F)F)c1)NC(=O)c1cccc(C(F)(F)F)c1Cl (centres unmarked) and report it.
Response: phyto

Prompt: For the compound Cc1ccc(Cl)cc1C(=O)NC(C)CNC(=O)c1cccc(C(F)(F)F)c1 (centres unmarked) , give its reported Pre-emergence activity (GR80) on SORVU.
Response: phyto

Prompt: Answer with reported Pre-emergence activity (GR80) on SORVU of CC(CNC(=O)c1cccc(C(F)(F)F)c1)NC(=O)c1ccccc1Cl (centres unmarked)
Response: phyto

----------
Item-by-item account of Pre-emergence activity (GR80) on SORHA
# System: SORHA
# assay.notes: Pre-emergence herbicidal activity on SORHA (johnsongrass, seedling)
# Type: in vivo, Sorghum halepense
# test.parameters: lowest tested rate giving 80% or greater inhibition, approx. 14 days after planting and treating, greenhouse
Give a bare numeral; the unit g/ha is implied.

Some entries whose results are on file:
# molecule, subject.of.test, unit.of.measure, Pre-emergence activity (GR80) on SORHA
rows = [
    ("CC(CNC(=O)c1cccc(C(F)(F)F)c1)NC(=O)c1cccc(Cl)c1Cl (centres unmarked) [Example 50]", "SORHA", "g/ha", 1000),
    ("Cc1c(F)cccc1C(=O)NC(C)CNC(=O)c1cccc(C(F)(F)F)c1 (centres unmarked) [Example 38]", "SORHA", "g/ha", 500),
    ("CC(CNC(=O)c1cccc(C(F)(F)F)c1)NC(=O)c1cccc(F)c1Cl (centres unmarked) [Example 37]", "SORHA", "g/ha", 1000),
]

Kindly review the next molecule as well.
Prompt: Identify measured Pre-emergence activity (GR80) on SORHA corresponding to CC(CNC(=O)c1cccc(C(F)(F)F)c1)NC(=O)c1cccc(Cl)c1F (centres unmarked) [Example 49]
Response: 250

----------
# System: SORVU
# assay.notes: Post-emergence herbicidal activity on SORVU (shattercane)
# Format: in vivo, Sorghum vulgare
# test.parameters: post-emergence spray; lowest tested rate with 80% or greater inhibition; about 14 days after treatment
measurement.name: Post-emergence activity (GR80) SORVU

# compound, Post-emergence activity (GR80) SORVU
data = [
    ("O=C(NCC(CO)NC(=O)c1cccc(C(F)(F)F)c1)c1cccc(C(F)(F)F)c1 (stereo not shown)", "[empty]"),
    ("CC(CNC(=O)c1cccc(C(F)(F)F)c1)NC(=O)c1cccc(C(F)(F)F)c1 (stereo not shown)", "[empty]"),
    ("CC(CNC(=O)c1cccc(C(F)(F)F)c1)NC(=O)c1ccccc1SCCCCl (stereo not shown)", "[empty]"),
    ("C=C(C)CSc1ccccc1C(=O)NC(C)CNC(=O)c1cccc(C(F)(F)F)c1 (stereo not shown)", "[empty]"),
    ("CCSc1ncccc1C(=O)NC(C)CNC(=O)c1cccc(C(F)(F)F)c1 (stereo not shown)", "[empty]"),
]

Prompt: For the compound CC(CNC(=O)c1cccc(C(F)(F)F)c1)NC(=O)c1ccc(C(F)(F)F)c(F)c1 (stereo not shown) , report Post-emergence activity (GR80) SORVU.
Response: phyto

Prompt: # return recorded Post-emergence activity (GR80) SORVU for input C[C@H](CNC(=O)c1cccc(C(F)(F)F)c1)NC(=O)Oc1ccc(F)cc1
Response: [empty]

Prompt: Kindly indicate its recorded Post-emergence activity (GR80) SORVU. Item: C[C@H](CNC(=O)c1cccc(C(F)(F)F)c1)NC(=O)Oc1ccc(Cl)cc1
Response: phyto

Prompt: Report measured Post-emergence activity (GR80) SORVU; entry is O=C(NCC(CCl)NC(=O)c1cccc(C(F)(F)F)c1)c1cccc(C(F)(F)F)c1 (stereo not shown)
Response: [empty]

Prompt: In one line, give reported Post-emergence activity (GR80) SORVU of the entry CC(CNC(=O)c1cccc(C(F)(F)F)c1)NC(=O)c1cccc(I)c1 (stereo not shown) .
Response: [empty]

----------
# Test system: PANDI
# assay.notes: Post-emergence herbicidal activity on PANDI (fall panicum)
# Type: in vivo, Panicum dichotomiflorum
# test.parameters: post-emergence spray; lowest tested rate with 80% or greater inhibition; about 14 days after treatment
measurement.name: Post-emergence activity (GR80) PANDI

# compound, Post-emergence activity (GR80) PANDI
rows = [
    ("C[C@H](CNC(=O)c1cccc(C(F)(F)F)c1)NC(=O)Oc1ccc(F)cc1 [Example 230]", "[empty]"),
    ("C[C@H](CNC(=O)c1cccc(C(F)(F)F)c1)NC(=O)Oc1ccc(Cl)cc1 [Example 231]", "phyto"),
    ("CC(CNC(=O)c1cccc(C(F)(F)F)c1)NC(=O)c1cccc(I)c1 (stereo not drawn) [Example 59]", "phyto"),
    ("C=C(C)CSc1ccccc1C(=O)NC(C)CNC(=O)c1cccc(C(F)(F)F)c1 (stereo not drawn) [Example 124]", "[empty]"),
    ("CC(CNC(=O)c1cccc(C(F)(F)F)c1)NC(=O)c1cccc(C(F)(F)F)c1 (stereo not drawn) [Example 5]", "[empty]"),
]

# input for lookup
Prompt: Determine from records and report Post-emergence activity (GR80) PANDI for CCSc1ncccc1C(=O)NC(C)CNC(=O)c1cccc(C(F)(F)F)c1 (stereo not drawn) [Example 243]
Response: [empty]

----------
# Tested on: ABUTH
# assay.notes: Pre-emergence herbicidal activity on ABUTH (velvetleaf)
# Format: in vivo, Abutilon theophrasti
# test.parameters: lowest tested rate giving 80% or greater inhibition, approx. 14 days after planting and treating, greenhouse
# Text: All such uses, and the biological activity enabling such uses, are embraced by the term “herbicidal” herein. Tables 15 and 16 summarize results of tests conducted as described below to determine the pre-emergence herbicidal activity, in the form of a GR80 value, of illustrative compounds of this invention. […] Approximately 14 days after planting and treating, the plants were observed and herbicidal efficacy recorded as percent inhibition by comparison with untreated plants. […]
measurement.name: Pre-emergence activity (GR80) on ABUTH (g/ha)
Return type: number; implicit unit g/ha.

# compound, subject.of.test, value
records = [
    ("CC(CNC(=O)c1cccc(C(F)(F)F)c1)NC(=O)c1cccc(OC(F)(F)F)c1 (stereo not drawn)", "ABUTH", 1000),
]

Prompt: Note down Pre-emergence activity (GR80) on ABUTH recorded for CC(CNC(=O)c1cccc(C(F)(F)F)c1)NC(=O)c1cccc(C(F)(F)F)c1Cl (stereo not drawn)
Response: 250

Prompt: // Input: CC(CNC(=O)c1cccc(F)c1)NC(=O)c1cccc(C(F)(F)F)c1F (stereo not drawn) . Output its Pre-emergence activity (GR80) on ABUTH only.
Response: 1000

Prompt: Supply reported Pre-emergence activity (GR80) on ABUTH belonging to this compound: Cc1c(Cl)cccc1C(=O)NC(C)CNC(=O)c1cccc(C(F)(F)F)c1 (stereo not drawn)
Response: 250

Prompt: Provide measured Pre-emergence activity (GR80) on ABUTH value, entry: Cc1cccc(C(=O)NC(C)CNC(=O)c2cccc(C(F)(F)F)c2)c1Cl (stereo not drawn)
Response: 250

Prompt: Input Cc1cccc(C(=O)NC(C)CNC(=O)c2cccc(C(F)(F)F)c2)c1Br (stereo not drawn) , output reported Pre-emergence activity (GR80) on ABUTH.
Response: 250

Prompt: Give the reported Pre-emergence activity (GR80) on ABUTH for this compound. CC(CNC(=O)c1cccc(Br)c1)NC(=O)c1cccc(C(F)(F)F)c1F (stereo not drawn)
Response: 750

Prompt: // fetch Pre-emergence activity (GR80) on ABUTH given entry Cc1ccc(C)c(C(=O)NC(C)CNC(=O)c2cccc(C(F)(F)F)c2)c1 (stereo not drawn)
Response: 500

Prompt: Provide one value: measured Pre-emergence activity (GR80) on ABUTH of CC(CNC(=O)c1cccc(Cl)c1)NC(=O)c1cccc(C(F)(F)F)c1F (stereo not drawn)
Response: 500

Prompt: Return Pre-emergence activity (GR80) on ABUTH (reported value) for this compound: C[C@H](CNC(=O)c1cccc(C(F)(F)F)c1)NC(=O)c1cccc(C(F)(F)F)c1F
Response: 250

Prompt: // Input: CC(CNC(=O)c1cccc(C(F)(F)F)c1)NC(=O)c1cccc(Cl)c1F (stereo not drawn) . Output its Pre-emergence activity (GR80) on ABUTH only.
Response: 64

Origin of the recorded values: patent US20020052295A1
